This collection of values is drawn from ChEMBL document CHEMBL5291721.

# test.target: Gamma-aminobutyric acid receptor subunit alpha-1 (Rattus norvegicus, UniProt P62813); also: assay procedure not described here
# Sequence (P62813 whole entry): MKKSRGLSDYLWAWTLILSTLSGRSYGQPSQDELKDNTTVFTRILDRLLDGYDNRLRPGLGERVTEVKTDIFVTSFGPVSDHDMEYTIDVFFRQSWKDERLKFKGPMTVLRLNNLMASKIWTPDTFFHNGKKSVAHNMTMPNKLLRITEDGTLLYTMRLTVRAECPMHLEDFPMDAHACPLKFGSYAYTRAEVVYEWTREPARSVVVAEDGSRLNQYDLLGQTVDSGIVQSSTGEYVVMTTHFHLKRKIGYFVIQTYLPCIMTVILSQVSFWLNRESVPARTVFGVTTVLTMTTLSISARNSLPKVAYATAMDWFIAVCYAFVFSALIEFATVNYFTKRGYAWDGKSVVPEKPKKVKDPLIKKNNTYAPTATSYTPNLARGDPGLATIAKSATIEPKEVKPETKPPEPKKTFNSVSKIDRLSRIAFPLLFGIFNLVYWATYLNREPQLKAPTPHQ
# Type: functional
metric: AC50

Entry O=C1c2cccc3c2[C@H](CCC3)CN1[C@@H]1CN2CCC1CC2 [PALONOSETRON] : reported AC50 = ?
> 30 µM

Proceed to COc1cc(C(C)=O)ccc1OCCCN1CCC(c2noc3cc(F)ccc23)CC1 [ILOPERIDONE]
12.9 µM

Proceed to C[N+]12CCC(CC1)C(OC(=O)C(O)(c1ccccc1)c1ccccc1)C2 (centres undefined)
> 30 µM

Proceed to CC(C)C[C@H](NC(=O)[C@@H](O)[C@H](N)Cc1ccccc1)C(=O)O [UBENIMEX]
> 30 µM
